biological target: PKC delta kinase (Homo sapiens); experiment: PKC delta kinase inhibition, coupled-enzyme (NADH absorbance) assay, Ki; format: biochemical; conditions: 150 μM ATP, 46 nM PKC delta kinase, 30° C.; read-out: Ki PKC delta
Sequence (Q05655 whole entry): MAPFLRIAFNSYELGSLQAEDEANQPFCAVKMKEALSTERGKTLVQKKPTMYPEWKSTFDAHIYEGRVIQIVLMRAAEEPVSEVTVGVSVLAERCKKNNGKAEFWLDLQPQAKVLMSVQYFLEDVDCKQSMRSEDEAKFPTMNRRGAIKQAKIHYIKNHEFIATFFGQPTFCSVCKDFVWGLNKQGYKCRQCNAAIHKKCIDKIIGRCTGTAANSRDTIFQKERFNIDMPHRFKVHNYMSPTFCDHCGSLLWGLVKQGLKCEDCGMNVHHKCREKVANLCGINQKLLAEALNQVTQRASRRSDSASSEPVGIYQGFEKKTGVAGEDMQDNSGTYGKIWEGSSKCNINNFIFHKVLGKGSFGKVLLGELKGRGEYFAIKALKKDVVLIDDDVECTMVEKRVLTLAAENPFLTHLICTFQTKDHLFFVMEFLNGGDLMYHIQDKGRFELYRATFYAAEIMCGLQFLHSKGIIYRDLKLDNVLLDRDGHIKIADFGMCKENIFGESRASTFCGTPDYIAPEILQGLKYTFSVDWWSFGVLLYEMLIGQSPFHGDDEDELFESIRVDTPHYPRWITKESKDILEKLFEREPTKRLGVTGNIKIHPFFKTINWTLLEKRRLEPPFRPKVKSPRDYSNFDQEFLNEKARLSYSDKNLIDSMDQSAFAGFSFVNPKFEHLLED
pKi: −log10 of the molar value.
VALUE KIND: pKi

{"MOLECULE": "NCC1CCN(c2cccc(-c3n[nH]c4ncccc34)n2)CC1", "READOUT VALUE": "> 5.55"}
{"MOLECULE": "COC(C)(C)CC1CN(c2ccc(C(F)(F)F)c(-c3n[nH]c4ncccc34)n2)CCN1 (centres unmarked)", "READOUT VALUE": "< 5.90"}
{"MOLECULE": "CCC[C@H]1CN(c2cccc(-c3n[nH]c4ncccc34)n2)C[C@H](CC(C)C)N1", "READOUT VALUE": "> 5.55"}
{"MOLECULE": "CC(C)C[C@H]1CN(c2ccc(C(F)(F)F)c(-c3n[nH]c4ncc(Br)cc34)n2)CCN1", "READOUT VALUE": "< 5.70"}
{"MOLECULE": "CC(C)C[C@H]1CN(c2ccc(Cl)c(-c3n[nH]c4ncccc34)n2)CCN1", "READOUT VALUE": "> 6.30"}
{"MOLECULE": "NCc1cccc(-c2ccc(C(F)(F)F)c(-c3n[nH]c4ncccc34)n2)c1", "READOUT VALUE": "< 5.90"}
{"MOLECULE": "CCC(C)(C)C(N)C1CCCN(c2ccc(F)c(-c3n[nH]c4ncccc34)n2)C1 (centres unmarked) [Compound 379]", "READOUT VALUE": "< 5.90"}
{"MOLECULE": "CNC(=O)C1CN(c2ccc(C(F)(F)F)c(-c3n[nH]c4ncccc34)n2)CCN1 (centres unmarked)", "READOUT VALUE": "< 5.90"}
{"MOLECULE": "Cc1ccccc1C1CN(c2cccc(-c3n[nH]c4ncccc34)n2)CCN1 (centres unmarked)", "READOUT VALUE": "> 6.30"}
{"MOLECULE": "CC1(C)CN(c2ccc(C(F)(F)F)c(-c3n[nH]c4ncccc34)n2)CCC1N (centres unmarked)", "READOUT VALUE": "> 6.30"}
{"MOLECULE": "OC1(C2CN(c3ccc(F)c(-c4n[nH]c5ncccc45)n3)CCN2)CCCC1 (centres unmarked)", "READOUT VALUE": "> 6.30"}
{"MOLECULE": "NC1CCN(c2cccc(-c3n[nH]c4ncccc34)n2)CC1", "READOUT VALUE": "> 5.55"}
{"MOLECULE": "CCC[C@@H]1CN(c2cccc(-c3n[nH]c4ncccc34)n2)C[C@H](CC(C)C)N1", "READOUT VALUE": "> 6.30"}
{"MOLECULE": "NCC1CN(c2ccc(F)c(-c3n[nH]c4ncccc34)n2)CCO1 (centres unmarked)", "READOUT VALUE": "< 5.90"}
{"MOLECULE": "CC1(C)CC1(O)C1CN(c2ccc(F)c(-c3n[nH]c4ncccc34)n2)CCN1 (centres unmarked) [Compound 381]", "READOUT VALUE": "> 6.30"}
{"MOLECULE": "NC1CCCN(c2cccc(-c3n[nH]c4ncccc34)n2)C1 (centres unmarked)", "READOUT VALUE": "> 6.30"}
{"MOLECULE": "CC(C)C[C@H]1CN(c2cccc(-c3n[nH]c4ncccc34)n2)CC(F)(F)CN1", "READOUT VALUE": "< 5.90"}
